test-details: folding stability dG unfold (combined trypsin and chymotrypsin); higher = more stable
Reported folding stability dG unfold values follow for various sequences

| construct-sequence | folding stability dG unfold |
| --- | --- |
| SAGGSAGGSAGPNIYVSIKWKHNNGPVTHQIPIPPNDPPEILDEMSKQPGFKVTDIEVMPSAGGSAGGSAGG [r11_692_TrROS] | -0.213 kcal/mol |
| SAGGNKGKTIQINFMIDPEDPEMMIEKISKWLQAKGFKIESIEPRPVGNRWMYSATFRVPNGREITIWSAGG [r13_421_TrROS] | 1.77 kcal/mol |
| SAGGSKTVTVTVRIKVTNEDGEELTVTARLTYNEETGEVTVEIEMSPEALERLRELFPDVKIEIYPSAGGSA [r2_409_TrROS_Hall] | 3.9 kcal/mol |
| SAGMEKAINLAKEYAKKLGLPLESINVTEIGNSVIIEMKIPEKGETITVNIPIHPDGTISLNIKFEKKKSAG [r5_888_JUSTAS] | 2.09 kcal/mol |
| SAGGSYLDEVREKILKEYPLKPGEPKEIEITVPLPSGRTVKIKIPVTVDPKTGKVEAKFEVLEETKESAGGS [r16_634_JUSTAS] | 0.934 kcal/mol |
| SAGGSAGGSAVYRTEDGRWVLVVEEVDGELTVHVYRRVDGRWELVETYPLEDLSPEARAALSAGGSAGGSAG [r3_241_TrROS_Hall] | 2.03 kcal/mol |
| SAEEAAKNFKPIRIRLRDPRGRLYEVERIELTPDGRLLITLRLPNETRTYLIEPDHPFPLPPDLIIEVEGSA [r9_993_TrMRF] | 3.34 kcal/mol |
| SAGGSAGGSAINLADIHEVEVEEIPEDPTAVYRVRARLPEPGVPVDFLLVRFPDGSVRFYGSAGGSAGGSAG [r3_234_TrMRF] | < -1 kcal/mol |
| SAGGSAGGSAGGLVLRGPNDSLLFVLYNPDTGLAVFYNPATNQLLVVNLPLPKPKPSELLSAGGSAGGSAGG [r7_383_TrMRF] | 2.68 kcal/mol |
| SAGGSAGGSAGDIDPEDDIFYLTVRLKDGVPFVLPVRYDDIPFIPPEFVEEATFHKPKDISAGGSAGGSAGG [r11_779_TrMRF] | 0.246 kcal/mol |
| SAGLKVRIRTKDGREIEIEVSEEEAERLVKELEDAGFTVERVEVEELEPEEEKEELEEEERELKEELEESAG [r5_645_TrROS_Hall] | 2.72 kcal/mol |
| SAGGSAGGSAGGPVFDMSNFEEVKEAAEKAGIDVVEEDPEKNTIYVDPSKPELIKEAIQKSAGGSAGGSAGG [r7_285_JUSTAS] | 0.205 kcal/mol |
| SAPPLPPDAVVETESEPVGVDPTENGTLTYYRRTVRVTLPDGSLTLESLVFRDPATGSSTSSVLRETALSAG [r14_293_JUSTAS] | < -1 kcal/mol |
| SAGGSAGGPIKDSKGKFIVTFEFPNGLKKKFEVENIKNPEIEFNFNGKKVKTKIIEIKKGDESKSAGGSAGG [r6_575_TrMRF] | 0.0149 kcal/mol |
| SAGGSAGGSAGGMTITVNGPTATITYPDGSVETIPLTSPEEFEALKAAHPDVEATPASPSAGGSAGGSAGGS [r10_1211_JUSTAS] | 0.967 kcal/mol |
| SAGMKEVTVSKDELEEILKKLPPNKTYKVTLYNPNGPTYEFTVTVENDTIKINEGPPNKSENLKVTLVSSAG [r5_85_JUSTAS] | 2 kcal/mol |
| SAGGSAGGSAGPENKNYMVMEMTIDIWIPLPPNAKVVFDPDEGKWKYVPIKIPIRIVMPWSAGGSAGGSAGG [r11_257_TrROS] | 3.2 kcal/mol |
| SAMTKEEAKENGHIYIMVKIEVTWPNGGKREFPIFFPFPSLDEAKEQIRSFFRRMNFKVKIDDISIFPVSAG [r14_854_TrROS] | 3.53 kcal/mol |
| SAGGSAGGSAPPRRVTIEYDPDSGMFKVKVPGGKEREIEGMPPNQIEEQAKDYGIDRVEIVSAGGSAGGSAG [r3_78_TrROS] | -0.0794 kcal/mol |
| SAGGSAGMRMQIQIPNDEIPPEKIEDALQEYGWNPTDVYPPDNGVSVTFEMDPGDMNKLMEAIKKLSAGGSA [r15_161_TrROS] | 0.107 kcal/mol |
| SAGGRGEGTMNDPEGGRVYKSEYDPGDGQAEIEPKPVPPVPPIDAEELAEELEQKNGLPNDDVEDMLGSAGG [r13_824_TrROS] | -0.309 kcal/mol |
| PGEMVPIEWPVKVRVRDPNGPGNKKREVEIPIEYPYPPGQKDPEQMLEMAHELAEELAEKEGPKDVEIEPIS [r1_300_TrROS] | -0.474 kcal/mol |
| SAGGKPLEPKIEVEVIPLPSGERVITLRVEVPPNDPLKIKFPGLKKEVEFPGDDEVEFRVVVPPDSFSAGGS [r16_56_TrMRF] | 0.69 kcal/mol |
| SAGGSSVKVVKTEVTEDPATGLTTVTETFENGAKATFTIDPATGTVPGETEYPDKKVKYTGYDPLPPSAGGS [r8_363_JUSTAS] | -0.111 kcal/mol |
| SAMKLTTLSESSDPATGVRYLTVAIPSSQDDLIKEIAEELEKKGVKATILTPNVPAGSSVTIKLEFKGKSAG [r14_354_JUSTAS] | 0.475 kcal/mol |
| SAGMVLKITVKDKKTKEEREIVIEIPEDDPELKKLGIKSPEELAKKLAEELKKEGIEVEEVKVEAYPLPSAG [r5_722_TrROS_Hall] | 1.78 kcal/mol |
| SAMKAEVYILVYDKNGKLIAKIPIKAEEVLEDPEKFLETVKTVVEEFSGIGVKLKIYFPSTGKEVEIEASAG [r14_972_TrMRF] | 3.6 kcal/mol |
